The measured values listed here are drawn from ChEMBL document CHEMBL4219153.

- method.notes: Intrinsic clearance in dog
- Type: ADME, organism-based, Canis lupus familiaris
- condition.info: in vivo
recorded.endpoint: CLint scaled (mL/min/kg)
Report the value in mL/min/kg with no unit label.

Recorded CLint scaled of C[C@@H](NC(=O)c1cc(-c2ccc(Cl)cn2)cc(C(C)(C)O)c1)c1ccc(C(F)(F)F)[n+]([O-])c1 , please.
7.7

----------
- tgt: Nuclear receptor subfamily 1 group I member 2 (Homo sapiens, UniProt O75469)
- Sequence (O75469 whole entry): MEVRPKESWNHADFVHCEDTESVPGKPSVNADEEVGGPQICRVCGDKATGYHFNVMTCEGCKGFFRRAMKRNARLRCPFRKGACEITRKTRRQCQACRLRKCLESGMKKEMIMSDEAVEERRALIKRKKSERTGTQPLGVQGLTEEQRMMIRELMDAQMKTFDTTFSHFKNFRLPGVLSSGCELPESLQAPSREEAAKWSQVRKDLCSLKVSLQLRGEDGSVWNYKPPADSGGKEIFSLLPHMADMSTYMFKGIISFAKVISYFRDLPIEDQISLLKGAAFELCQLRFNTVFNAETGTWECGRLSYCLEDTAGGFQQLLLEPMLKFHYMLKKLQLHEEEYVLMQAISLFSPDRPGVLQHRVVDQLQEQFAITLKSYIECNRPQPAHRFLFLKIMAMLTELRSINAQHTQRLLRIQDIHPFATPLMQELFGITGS
- method.notes: Activation of PXR (unknown origin)
pEC50: −log10 of the molar value.
Item-by-item account of pEC50

Before answering, review these 2 worked examples.
{"columns": ["record.smiles", "tgt", "pEC50"],
 "data": [
  ["C[C@@H](NC(=O)c1cc(-c2ccc(Cl)cn2)cc(C(C)(C)O)c1)c1ccc(C(F)(F)F)[n+]([O-])c1", "Nuclear receptor subfamily 1 group I member 2 (Homo sapiens, UniProt O75469)", "< 4.52"],
  ["Cc1ccc(-c2cc(C(=O)N[C@H](C)c3ccc(F)cn3)cc(N3CCOCC3)c2)nc1", "Nuclear receptor subfamily 1 group I member 2 (Homo sapiens, UniProt O75469)", "< 4.52"]
]}

Next up:
Recorded pEC50 of Cc1ccc(-c2cc(C(=O)N[C@H](C)c3ccc(C(F)(F)F)[n+]([O-])c3)cc(C(C)(C)O)c2)nc1 , please.
< 4.52
